molecular target: pooled human IgG (human IgG1,2,3 and 4)
quantity.name: Enzyme Activity Endpoint Assay (purified): Fc
Value and unit, in that order.

Which Enzyme Activity Endpoint Assay (purified): Fc is listed for PRT-447 (protein) MVTSVWTKGVTPPTDFIKGEDVFHAPYKAGQGWYDITKAFDGGDDLLCGAATAGNMLHWWFDQNKDQIEAYLKEHPEKQKINFNGEQMFDVKEAIDTKDDQTNSELFNYFKEKAFPYLSTKHLGVFPDHVLDMFINGYRLSLTNHGPTPVKEGSKDPRGGIFDAVFTRGDQSKLLTSRHDFKEKTLKEISDLIKQELTEGKALALSHTYANVRINHVINLWGADFDSNGNLEAIYVTDSDSNASIGMKKYFVGVNSAGKVAISAKEIEDDNIGAQVLGLFTLSTGQDIWNQTNLEHHHHHH ?
255 ng/µL
